All values here come from ChEMBL document CHEMBL4765302.

- assay_name: Clearance in ICR mouse at 4 mg/kg, iv measured upto 24 hrs by LC-MS/MS analysis
- Format: ADME, organism-based
- recorded_conditions: in vivo
reported_property: clearance
Write the figure, then the unit, nothing else.

Which clearance value is on record for Cc1ccc(Nc2nc(Cl)nc3c2ncn3Cc2ccc(C(=O)Nc3ccccc3N)cc2)cc1 ? 23.3 mL/min/kg

---

- Tested on: NCI-H460
- assay_name: Antiproliferative activity against human H460 cells assessed as reduction in cell growth at 8 uM incubated for 72 hrs by CCK-8 assay relative to control
- Assay type: functional
reported_property: inhibition at 8 µM (%)
State just the number; it will be interpreted in %.

Which inhibition at 8 µM value is on record for CC(C)n1cnc2c(NCc3ccc(C(=O)Nc4ccccc4N)cc3)nc(Cl)nc21 ? 80.5

Which inhibition at 8 µM value is on record for CCCCn1cnc2c(Nc3cccc(Cl)c3)nc(NCCOCc3ccc(/C=C/C(=O)Nc4ccccc4N)cc3)nc21 ? 51.1

Which inhibition at 8 µM value is on record for COC(CCn1cnc2c(NCc3ccc(C(=O)Nc4ccccc4N)cc3)nc(Cl)nc21)OC ? 51.2

Which inhibition at 8 µM value is on record for CCCn1cnc2c(NCc3ccc(C(=O)Nc4ccccc4N)cc3)nc(Cl)nc21 ? 39.2

Which inhibition at 8 µM value is on record for CC[C@H](CO)Nc1nc(NCc2ccccc2)c2ncn(C(C)C)c2n1 [SELICICLIB] ? 15.6

Which inhibition at 8 µM value is on record for Nc1ccccc1NC(=O)c1ccc(CNc2nc(Cl)nc3c2ncn3C2CCCC2)cc1 ? 57.4

Which inhibition at 8 µM value is on record for Nc1ccccc1NC(=O)c1ccc(CNc2nc(Cl)nc3c2ncn3Cc2ccccc2)cc1 ? 46.4

Which inhibition at 8 µM value is on record for Nc1ccccc1NC(=O)/C=C/c1ccc(Cn2cnc3c(N4CCOCC4)nc(Cl)nc32)cc1 ? 37.9

Which inhibition at 8 µM value is on record for Nc1ccccc1NC(=O)/C=C/c1ccc(Cn2cnc3c(Nc4cccc(OC(F)(F)F)c4)nc(Cl)nc32)cc1 ? 66.7
